Reference source for all entries: patent US12209075B2

STUDY TARGET: hNav1.7 (Homo sapiens (Human), UniProt Q15858)
TEST DETAILS: Patch voltage clamp electrophysiology assay (EP), Syncropatch 384PE, CHO cells expressing Nav1.7
Assay type: cell-based
CONDITION CONTEXT: holding potential −50 mV, 7.5 min compound incubation; read-out: EP_SP hNav1.7 EVO IC50
Sequence (Q15858 other isoform, or with tags, fused parts or gaps): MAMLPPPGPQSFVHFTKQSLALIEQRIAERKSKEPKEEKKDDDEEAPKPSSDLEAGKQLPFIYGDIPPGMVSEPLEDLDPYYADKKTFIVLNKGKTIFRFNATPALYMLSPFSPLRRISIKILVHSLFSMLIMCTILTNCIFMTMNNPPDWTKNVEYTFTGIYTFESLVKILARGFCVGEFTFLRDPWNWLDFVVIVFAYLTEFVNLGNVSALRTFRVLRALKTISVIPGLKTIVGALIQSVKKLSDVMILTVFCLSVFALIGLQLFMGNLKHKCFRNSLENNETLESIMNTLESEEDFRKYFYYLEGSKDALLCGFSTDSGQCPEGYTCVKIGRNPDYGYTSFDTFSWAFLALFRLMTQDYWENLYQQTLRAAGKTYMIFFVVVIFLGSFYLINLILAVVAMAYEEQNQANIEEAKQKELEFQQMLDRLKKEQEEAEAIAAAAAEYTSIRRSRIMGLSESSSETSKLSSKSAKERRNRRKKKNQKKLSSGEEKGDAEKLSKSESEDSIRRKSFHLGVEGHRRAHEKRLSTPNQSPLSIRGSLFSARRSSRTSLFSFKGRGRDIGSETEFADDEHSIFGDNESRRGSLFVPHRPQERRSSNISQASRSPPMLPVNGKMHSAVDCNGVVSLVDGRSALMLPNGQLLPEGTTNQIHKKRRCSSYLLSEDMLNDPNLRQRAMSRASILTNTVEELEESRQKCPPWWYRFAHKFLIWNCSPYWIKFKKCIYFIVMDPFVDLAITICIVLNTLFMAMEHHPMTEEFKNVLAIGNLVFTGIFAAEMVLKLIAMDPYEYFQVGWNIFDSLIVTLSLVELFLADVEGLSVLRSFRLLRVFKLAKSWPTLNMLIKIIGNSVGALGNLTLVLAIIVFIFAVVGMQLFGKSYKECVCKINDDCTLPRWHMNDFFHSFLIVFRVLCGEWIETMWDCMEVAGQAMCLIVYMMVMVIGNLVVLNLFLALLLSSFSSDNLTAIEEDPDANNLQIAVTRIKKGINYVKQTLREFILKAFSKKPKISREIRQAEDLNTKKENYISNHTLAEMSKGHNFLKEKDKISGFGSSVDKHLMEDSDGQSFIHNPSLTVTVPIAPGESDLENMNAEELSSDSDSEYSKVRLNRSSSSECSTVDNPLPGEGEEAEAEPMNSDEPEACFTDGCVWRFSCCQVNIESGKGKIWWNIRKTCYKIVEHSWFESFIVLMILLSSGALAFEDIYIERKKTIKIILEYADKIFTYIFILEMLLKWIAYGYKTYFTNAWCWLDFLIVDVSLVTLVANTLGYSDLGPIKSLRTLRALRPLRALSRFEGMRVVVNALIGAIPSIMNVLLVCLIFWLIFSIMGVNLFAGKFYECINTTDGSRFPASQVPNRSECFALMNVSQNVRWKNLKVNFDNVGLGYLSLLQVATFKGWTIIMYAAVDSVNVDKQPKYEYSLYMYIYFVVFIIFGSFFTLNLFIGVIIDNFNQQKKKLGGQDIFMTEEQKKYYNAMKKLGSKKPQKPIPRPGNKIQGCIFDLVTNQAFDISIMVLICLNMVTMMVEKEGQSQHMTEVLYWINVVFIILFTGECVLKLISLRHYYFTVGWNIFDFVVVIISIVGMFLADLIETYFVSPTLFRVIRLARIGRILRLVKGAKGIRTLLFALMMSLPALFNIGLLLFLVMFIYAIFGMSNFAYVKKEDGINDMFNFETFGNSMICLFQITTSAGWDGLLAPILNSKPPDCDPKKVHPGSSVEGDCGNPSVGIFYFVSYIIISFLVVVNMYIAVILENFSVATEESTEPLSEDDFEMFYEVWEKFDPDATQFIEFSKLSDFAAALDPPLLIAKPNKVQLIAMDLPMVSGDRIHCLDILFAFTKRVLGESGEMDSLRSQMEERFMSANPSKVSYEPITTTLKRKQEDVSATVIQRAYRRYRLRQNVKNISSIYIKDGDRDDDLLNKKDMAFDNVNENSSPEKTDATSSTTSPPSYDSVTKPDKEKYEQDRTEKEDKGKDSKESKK
Where a name gives a salt, the structure may show the parent alone.
ASSAY METRIC: IC50

// solved cases for IC50 follow
> print(dat)
                                   molecule  reported.measurement
1  O=S(=O)(Nc1ccncn1)c1ccc(N[C@H]2CC[C@H](c3cccc(OC(F)(F)F)c3)C[C@@H]2N2CCCC2)nc1 [Example 9, formate]              0.664 nM
2  Cc1nc(O[C@H]2CC[C@H](c3cc(Cl)cc(Cl)c3)C[C@@H]2N(C)C)ccc1S(=O)(=O)Nc1ccncn1              0.222 nM
3  CN(C)[C@H]1C[C@@H](c2cccc(Cl)c2)CC[C@@H]1Oc1ncc(S(=O)(=O)Nc2ccncn2)cc1Cl              0.574 nM
4  Cc1nc(O[C@H]2CC[C@H](c3ccc(Cl)c(Cl)c3)C[C@@H]2N(C)C)ccc1S(=O)(=O)Nc1ccncn1              0.301 nM

Ask | Quick one: give measured IC50 for CN(C)[C@H]1C[C@@H](c2cccc(OC(F)(F)F)c2)CC[C@@H]1Nc1ccc(S(=O)(=O)Nc2ccncn2)cn1 [Example 8, formate]
Reply | 0.574 nM

---

STUDY TARGET: hNav1.7 (Homo sapiens (Human), UniProt Q15858)
TEST DETAILS: Tritiated compound binding to membranes from cells expressing hNav1.7 and the β1 subunit (Nav1.7 LBA EVO)
CONDITION CONTEXT: competitive binding vs [3H]compound, membranes with hNav1.7 and β1 subunit
Sequence (Q15858 whole entry, looked up): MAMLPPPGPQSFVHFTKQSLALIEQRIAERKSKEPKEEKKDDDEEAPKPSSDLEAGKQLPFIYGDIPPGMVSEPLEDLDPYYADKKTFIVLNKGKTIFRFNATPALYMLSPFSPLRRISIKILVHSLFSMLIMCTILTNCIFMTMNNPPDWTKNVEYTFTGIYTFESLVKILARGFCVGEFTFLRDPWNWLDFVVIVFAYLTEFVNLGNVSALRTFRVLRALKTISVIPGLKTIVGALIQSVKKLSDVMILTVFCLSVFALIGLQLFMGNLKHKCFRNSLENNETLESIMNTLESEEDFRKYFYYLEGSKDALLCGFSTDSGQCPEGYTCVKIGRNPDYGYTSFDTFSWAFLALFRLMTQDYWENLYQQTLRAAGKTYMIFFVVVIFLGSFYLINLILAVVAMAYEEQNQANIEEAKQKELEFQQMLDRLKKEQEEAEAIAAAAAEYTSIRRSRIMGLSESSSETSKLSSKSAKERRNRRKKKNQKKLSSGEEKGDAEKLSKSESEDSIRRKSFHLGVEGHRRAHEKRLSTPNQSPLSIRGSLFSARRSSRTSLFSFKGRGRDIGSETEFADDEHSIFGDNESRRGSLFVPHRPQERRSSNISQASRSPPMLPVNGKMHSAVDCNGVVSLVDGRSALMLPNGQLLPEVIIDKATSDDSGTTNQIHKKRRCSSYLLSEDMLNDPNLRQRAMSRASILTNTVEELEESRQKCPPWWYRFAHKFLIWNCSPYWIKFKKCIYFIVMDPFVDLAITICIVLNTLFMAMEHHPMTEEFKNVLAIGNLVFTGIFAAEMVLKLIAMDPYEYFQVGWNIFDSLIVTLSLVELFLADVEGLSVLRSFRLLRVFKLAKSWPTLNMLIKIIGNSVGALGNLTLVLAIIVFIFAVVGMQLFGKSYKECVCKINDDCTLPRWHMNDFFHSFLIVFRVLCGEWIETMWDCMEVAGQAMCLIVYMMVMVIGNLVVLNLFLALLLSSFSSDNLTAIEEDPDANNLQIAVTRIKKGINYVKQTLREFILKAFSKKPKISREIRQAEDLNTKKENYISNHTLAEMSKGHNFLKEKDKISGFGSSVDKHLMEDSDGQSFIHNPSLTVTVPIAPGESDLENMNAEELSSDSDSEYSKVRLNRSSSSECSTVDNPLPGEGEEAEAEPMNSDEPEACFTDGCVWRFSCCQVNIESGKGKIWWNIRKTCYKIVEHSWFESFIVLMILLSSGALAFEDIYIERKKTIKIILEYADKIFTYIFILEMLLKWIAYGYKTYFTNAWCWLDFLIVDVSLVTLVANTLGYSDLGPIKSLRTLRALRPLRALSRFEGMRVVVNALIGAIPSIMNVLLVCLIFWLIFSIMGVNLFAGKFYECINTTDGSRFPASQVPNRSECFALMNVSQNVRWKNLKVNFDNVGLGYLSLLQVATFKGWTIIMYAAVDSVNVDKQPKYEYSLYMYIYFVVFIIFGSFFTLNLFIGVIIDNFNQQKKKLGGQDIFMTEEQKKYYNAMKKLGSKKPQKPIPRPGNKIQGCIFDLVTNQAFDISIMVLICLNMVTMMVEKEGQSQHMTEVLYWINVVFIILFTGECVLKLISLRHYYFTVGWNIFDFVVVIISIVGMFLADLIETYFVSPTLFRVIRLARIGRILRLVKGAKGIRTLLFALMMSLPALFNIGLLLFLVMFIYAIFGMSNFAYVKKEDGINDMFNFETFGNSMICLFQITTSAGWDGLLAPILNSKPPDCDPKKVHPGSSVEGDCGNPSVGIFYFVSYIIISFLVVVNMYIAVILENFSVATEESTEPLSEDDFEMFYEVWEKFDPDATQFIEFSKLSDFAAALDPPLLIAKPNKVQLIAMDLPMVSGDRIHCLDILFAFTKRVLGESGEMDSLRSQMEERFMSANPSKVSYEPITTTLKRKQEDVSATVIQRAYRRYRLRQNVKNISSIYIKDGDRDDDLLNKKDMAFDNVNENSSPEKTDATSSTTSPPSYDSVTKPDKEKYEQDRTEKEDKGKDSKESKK
Sequence (Q07699 whole entry partner, looked up): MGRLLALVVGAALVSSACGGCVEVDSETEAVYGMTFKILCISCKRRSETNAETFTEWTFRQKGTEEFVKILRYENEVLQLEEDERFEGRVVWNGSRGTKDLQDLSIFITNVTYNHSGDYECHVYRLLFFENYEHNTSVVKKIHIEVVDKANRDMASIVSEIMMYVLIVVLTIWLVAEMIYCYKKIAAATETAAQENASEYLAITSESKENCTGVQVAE
Structures can show the parent of a compound that is named as a salt.
Please respond with reported IC50 for every item in the list.
Numbers only, in nM.

> print(dat)
                                   compound  unit.spec  reported.measurement
1  CN(C)[C@H]1C[C@@H](c2cccc(C(F)(F)F)c2)CC[C@@H]1Oc1ccc(S(=O)(=O)Nc2ccncn2)c(Cl)n1         nM                    40
2  Cc1cc(O[C@H]2CC[C@H](c3cccc(C(F)(F)F)c3)C[C@@H]2N(C)C)ncc1S(=O)(=O)Nc1ccncn1         nM                  2.07
3  CN(C)[C@H]1C[C@@H](c2cccc(C(F)(F)F)c2)CC[C@@H]1Oc1ncc(S(=O)(=O)Nc2ccncn2)cc1C1CC1 [Example 7, formate]         nM                  4.88
4  Cc1nc(O[C@H]2CC[C@H](c3cc(Cl)cc(Cl)c3)C[C@@H]2N(C)C)ccc1S(=O)(=O)Nc1ccncn1         nM                  1.12
5  Cc1nc(O[C@H]2CC[C@H](c3cccc(CC(F)(F)F)c3)C[C@@H]2N(C)C)ccc1S(=O)(=O)Nc1ccncn1         nM                  1.59

Hi team, please reply with IC50 for each item in this list.
1. Cc1nc(O[C@H]2CC[C@H](c3cc(Cl)ccc3Cl)C[C@@H]2N(C)C)ccc1S(=O)(=O)Nc1ccncn1 [Example 39, formate]
2. CN(C)[C@H]1C[C@@H](c2cccc(C(F)(F)F)c2)CC[C@@H]1Nc1ccc(S(=O)(=O)Nc2ccncn2)nc1
3. Cc1nc(O[C@H]2CC[C@H](c3cccc(C(F)(F)F)c3)C[C@@H]2N2CCOCC2)ccc1S(=O)(=O)Nc1ccncn1

Reply |
[0.935, 66.4, 1.72]

---

STUDY TARGET: UniProt:Q15858
TEST DETAILS: Tritiated compound binding to membranes from cells expressing hNav1.7 and the β1 subunit (Nav1.7 LBA EVO)
CONDITION CONTEXT: competitive binding vs [3H]compound, membranes with hNav1.7 and β1 subunit
Structures can show the parent of a compound that is named as a salt.
Please respond with reported IC50 for every item in the list.
Numbers only, in nM.

// solved cases for IC50 follow
> print(dat)
                                   molecule    study.target  assay.metric  reported.measurement
1  CN(C)[C@H]1C[C@@H](c2cccc(C(F)(F)F)c2)CC[C@@H]1Oc1ncc(S(=O)(=O)Nc2ccncn2)cc1C(F)(F)F  UniProt:Q15858          IC50                  43.7
2  CN(C)[C@H]1C[C@@H](c2cccc(OC(F)(F)F)c2)CC[C@@H]1Nc1ccc(S(=O)(=O)Nc2ccncn2)cn1 [Example 8, formate]  UniProt:Q15858          IC50                  7.12

Ask | Quick one: give measured IC50 for `Cc1nc(O[C@H]2CC[C@H](c3cc(C(F)(F)F)ccc3Cl)C[C@@H]2N(C)C)ccc1S(=O)(=O)Nc1ccncn1`
Reply | 1.77

---

STUDY TARGET: hNav1.7 (Homo sapiens (Human))
TEST DETAILS: Tritiated compound binding to membranes from cells expressing hNav1.7 and the β1 subunit (Nav1.7 LBA EVO)
CONDITION CONTEXT: competitive binding vs [3H]compound, membranes with hNav1.7 and β1 subunit
Protocol: Example 64a. Tritiated Compound Binding to Membranes Isolated from Cells that Heterologously Express hNav1.7 and the β1 Subunit Preparation of membranes containing recombinantly expressed sodium channels: Frozen recombinant cell pellets are thawed on ice and diluted to 4 times the cell pellet weight with ice cold 50 mM Tris HCl, pH 7.4 buffer. […] Protein concentrations arer determined by Bradford Assay and the membranes are stored at −80° C. […]
Structures can show the parent of a compound that is named as a salt.
ASSAY METRIC: pIC50
Numbers only, as −log10 of the molar value.

// solved cases for pIC50 follow
> print(dat)
                                   molecule  assay.metric  reported.measurement
1  CN(C)[C@H]1C[C@@H](c2cccc(C(F)(F)F)c2)CC[C@@H]1Oc1ncc(S(=O)(=O)Nc2ccncn2)cc1Cl         pIC50                  7.40
2  Cc1nc(O[C@H]2CC[C@H](c3ccc(Cl)c(C(F)(F)F)n3)C[C@@H]2N(C)C)ccc1S(=O)(=O)Nc1ccncn1         pIC50                  8.72
3  Cc1nc(O[C@H]2CC[C@H](c3cccc(OC(F)(F)F)c3)C[C@@H]2N2CCCC2)ccc1S(=O)(=O)Nc1ccncn1         pIC50                  7.78
4  CCN(CC)[C@H]1C[C@@H](c2cccc(C(F)(F)F)c2)CC[C@@H]1Oc1ccc(S(=O)(=O)Nc2ccncn2)c(C)n1         pIC50                  9.04

Hi team, please reply with pIC50 for each item in this list.
1. Cc1ccc([C@H]2CC[C@H](Oc3ccc(S(=O)(=O)Nc4ccncn4)c(C)n3)[C@@H](N(C)C)C2)cc1C(F)(F)F [Example 56, formate]
2. CN(C)[C@H]1C[C@@H](c2cccc(C(F)(F)F)c2)CC[C@@H]1Oc1ncc(S(=O)(=O)Nc2ccncn2)cc1C#N [Example 6, formate]
3. Cc1nc(O[C@H]2CC[C@H](c3cccc(OC(F)(F)F)c3)C[C@@H]2N(C)C)ccc1S(=O)(=O)Nc1ccncn1
4. COc1cc(S(=O)(=O)Nc2ccncn2)cnc1O[C@H]1CC[C@H](c2cccc(C(F)(F)F)c2)C[C@@H]1N(C)C [Example 61, formate]

Reply |
[8.88, 7.35, 8.39, 8.72]

---

STUDY TARGET: hNav1.7 (Homo sapiens (Human))
TEST DETAILS: Tritiated compound binding to membranes from cells expressing hNav1.7 and the β1 subunit (Nav1.7 LBA EVO)
CONDITION CONTEXT: competitive binding vs [3H]compound, membranes with hNav1.7 and β1 subunit
Counter-ions that a name gives are not always drawn.
Please respond with reported pIC50 for every item in the list.
Numbers only, as −log10 of the molar value.

// solved cases for pIC50 follow
> print(dat)
                                   molecule  reported.measurement
1  CN(C)[C@H]1C[C@@H](c2cccc(C(F)(F)F)c2)CC[C@@H]1Oc1ncc(S(=O)(=O)Nc2ccncn2)cc1F                  8.04
2  CN(C)[C@H]1C[C@@H](c2cc(C(F)(F)F)ccc2F)CC[C@@H]1Oc1ccc(S(=O)(=O)Nc2ccncn2)c(Cl)n1 [Example 44, formate]                  9.14

Hi team, please reply with pIC50 for each item in this list.
1. Cc1ccc(C(F)(F)F)cc1[C@H]1CC[C@H](Oc2ccc(S(=O)(=O)Nc3ccncn3)c(C)n2)[C@@H](N(C)C)C1
2. Cc1nc(O[C@H]2CC[C@H](c3cc(F)cc(C(F)(F)F)c3)C[C@@H]2N(C)C)ccc1S(=O)(=O)Nc1ccncn1

Reply |
1. 9.16
2. 9.14

Hi team, please reply with pIC50 for each item in this list.
1. Cc1nc(O[C@H]2CC[C@H](c3cccc(C(F)(F)F)c3)C[C@@H]2N(C)C)ccc1S(=O)(=O)Nc1ccncn1 [Example 23, formate]
2. Cc1nc(O[C@H]2CC[C@H](c3cccc(C(F)(F)F)c3)C[C@@H]2N(C)C)c(F)cc1S(=O)(=O)Nc1ccncn1 [Example 53, formate]

Reply |
1: 8.08; 2: 9.21
